Give MIC for every item shown.
# Test system: Enterococcus faecium
# PROTOCOL_DETAILS: Antimicrobial activity against antibiotic-resistant Enterococcus faecium ATCC 700221 assessed as inhibition of visible growth measured after 20 to 24 hrs incubation by CLSI method
# Assay type: functional
# MEASUREMENT_CONTEXT: time 20-24 hrs

Answered cases to consult:
[
  {
    "MOL_SMILES": "O=C(O)c1ccc(-n2cc(CNc3ccc(F)c(F)c3F)c(-c3ccc(F)c(F)c3)n2)cc1",
    "TARGET_OR_TEST_SYSTEM": "Enterococcus faecium",
    "RESULT_VALUE": "> 32 µg/mL"
  },
  {
    "MOL_SMILES": "O=C(O)c1ccc(-n2cc(CNc3ccc(Br)cc3)c(-c3ccc(F)c(F)c3)n2)cc1",
    "TARGET_OR_TEST_SYSTEM": "Enterococcus faecium",
    "RESULT_VALUE": "> 32 µg/mL"
  }
]

# MIC lookup, item O=C(O)c1ccc(-n2cc(CNc3ccc(F)c(F)c3)c(-c3ccc(F)cc3)n2)cc1
> 32 µg/mL

###

# Test system: Staphylococcus aureus
# PROTOCOL_DETAILS: Antimicrobial activity against Staphylococcus aureus ATCC 25923 assessed as inhibition of visible growth measured after 20 to 24 hrs incubation by CLSI method
# Type: functional
# MEASUREMENT_CONTEXT: time 20-24 hrs
Give MIC for every item shown.

Answered cases to consult:
[
  {
    "MOL_SMILES": "O=C(O)c1ccc(-n2cc(CNc3cc(Br)cc(C(F)(F)F)c3)c(-c3ccc(F)c(F)c3)n2)cc1",
    "RESULT_VALUE": "1 µg/mL"
  },
  {
    "MOL_SMILES": "Cc1cc(NCc2cn(-c3ccc(C(=O)O)cc3)nc2-c2ccc(F)cc2)ccc1Br",
    "RESULT_VALUE": "4 µg/mL"
  },
  {
    "MOL_SMILES": "O=C(O)c1ccc(-n2cc(CNc3ccc(F)c(C(F)(F)F)c3)c(-c3ccc(F)cc3)n2)cc1",
    "RESULT_VALUE": "4 µg/mL"
  },
  {
    "MOL_SMILES": "O=C(O)c1ccc(-n2cc(CNc3cccc(OC(F)(F)F)c3)c(-c3ccc(F)c(F)c3)n2)cc1",
    "RESULT_VALUE": "4 µg/mL"
  },
  {
    "MOL_SMILES": "CC(C)c1ccc(NCc2cn(-c3ccc(C(=O)O)cc3)nc2-c2ccc(F)cc2)cc1",
    "RESULT_VALUE": "8 µg/mL"
  }
]

Go through the list and state MIC for each entry.
1. O=C(O)c1ccc(-n2cc(CNc3ccc(Oc4ccccc4)cc3)c(-c3cccc(F)c3)n2)cc1
2. O=C(O)c1ccc(-n2cc(CNc3ccc(Cl)cc3)c(-c3ccc(F)cc3)n2)cc1
3. O=C(O)c1ccc(-n2cc(CNc3ccc(F)c(Cl)c3)c(-c3ccc(F)cc3)n2)cc1
4. O=C(O)c1ccc(-n2cc(CNc3ccc(F)cc3)c(-c3ccc(F)cc3)n2)cc1

4 µg/mL
> 32 µg/mL
8 µg/mL
16 µg/mL

###

# System: Enterococcus faecalis
# PROTOCOL_DETAILS: Antimicrobial activity against antibiotic-resistant Enterococcus faecalis ATCC 51299 assessed as inhibition of visible growth measured after 20 to 24 hrs incubation by CLSI method
# Type: functional
# MEASUREMENT_CONTEXT: time 20-24 hrs
Give MIC for every item shown.
Give bare numbers, in µg/mL.

Answered cases to consult:
[
  {
    "MOL_SMILES": "O=C(O)c1ccc(-n2cc(CNc3cccc(C(F)(F)F)c3)c(-c3ccc(F)c(F)c3)n2)cc1",
    "TARGET_OR_TEST_SYSTEM": "Enterococcus faecalis",
    "MIC [µg/mL]": 8
  },
  {
    "MOL_SMILES": "O=C(O)c1ccc(-n2cc(CNc3ccc(Oc4ccccc4)cc3)c(-c3ccc(F)cc3)n2)cc1",
    "TARGET_OR_TEST_SYSTEM": "Enterococcus faecalis",
    "MIC [µg/mL]": 4
  },
  {
    "MOL_SMILES": "O=C(O)c1ccc(-n2cc(CNc3cc(F)cc(C(F)(F)F)c3)c(-c3ccc(F)c(F)c3)n2)cc1",
    "TARGET_OR_TEST_SYSTEM": "Enterococcus faecalis",
    "MIC [µg/mL]": 8
  }
]

Now consider the entry below.
Given the entry O=C(O)c1ccc(-n2cc(CNc3ccc(Br)c(C(F)(F)F)c3)c(-c3ccc(F)c(F)c3)n2)cc1 , what MIC was observed with Enterococcus faecalis?
4
